assay_system: 15-PGDH in A549 cells (Homo sapiens, UniProt P15428)
Construct: endogenous in cells
Sequence (P15428 whole entry): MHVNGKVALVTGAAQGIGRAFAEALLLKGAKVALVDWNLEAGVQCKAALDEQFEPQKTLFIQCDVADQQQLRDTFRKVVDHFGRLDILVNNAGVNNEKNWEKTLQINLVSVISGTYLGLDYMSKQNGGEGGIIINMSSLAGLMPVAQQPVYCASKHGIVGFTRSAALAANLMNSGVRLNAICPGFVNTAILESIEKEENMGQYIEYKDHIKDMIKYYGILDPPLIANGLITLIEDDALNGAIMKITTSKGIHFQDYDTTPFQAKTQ
experiment: A549 cellular 15-PGDH assay (PGE2 accumulation, HTRF)
cond: interleukin-stimulated, inhibitor 24 hrs, PGE2 by competitive HTRF, read-out: A549 Cell Assay IC50
Method: This assay was used for the quantification of IL-13 induced Native Prostaglandin E2 (PGE2) produced by A549 cells (epithelial cells from lung carcinoma) in cell culture supernatants. […] PGE2 was detected in a competitive HTRF assay by using anti PGE2 antibody labeled with Europium cryptate, and PGE2 labeled with deuterium. […] From this binding data, IC50 values were calculated.
pIC50: −log10 of the molar value.
experimental_readout: pIC50

{"compound": "O[C@]1(c2cc3cnc(-c4cccnc4)nc3s2)C[C@H](C(F)(F)F)C1 [Compound C122C]", "assay_system": "15-PGDH in A549 cells (Homo sapiens, UniProt P15428)", "pIC50": 7.74}
{"compound": "Cn1cc2cc(-c3ccc4cc([C@]5(O)C[C@@H](C(F)F)C5)ccc4n3)cnc2n1 [Compound D6C]", "assay_system": "15-PGDH in A549 cells (Homo sapiens, UniProt P15428)", "pIC50": 6.45}
{"compound": "Cn1nnc2cc(-c3ncc4cc([C@]5(O)C[C@@H](C(F)F)C5)sc4n3)cnc21 [Compound C85C]", "assay_system": "15-PGDH in A549 cells (Homo sapiens, UniProt P15428)", "pIC50": 8.12}

I = CO[C@]1(C)C[C@](O)(c2nc3ccc(-c4cnc5nn(C)cc5c4)nc3s2)C1 (single isomer, unassigned) [Compound C125T]
II = Cn1cc2cc(-c3ccc4cc([C@@H](O)[C@H]5CCC5(F)F)sc4n3)cnc2n1 (single isomer, unassigned) [Compound B94SR]
III = Cn1cc2cc(-c3ccc4cc([C@]5(O)C[C@@H](F)C5)sc4n3)cnc2n1 [Compound C40C]
IV = CC(O)c1cc2c(C3CC3)cc(-c3cnc4nn(C)cc4c3)nc2s1 (stereo not shown) [Compound B11]
Task for the reader: rank each entry by its pIC50, from the minimum upward. Please, when replying, give the labels in the order that was requested.
IV, I, II, III
